Where these numbers come from: paper PMC4041461

- assay_system: U2AF65 (Homo sapiens, UniProt P26368 1-475)
- Sequence (P26368 whole entry, one chain of several): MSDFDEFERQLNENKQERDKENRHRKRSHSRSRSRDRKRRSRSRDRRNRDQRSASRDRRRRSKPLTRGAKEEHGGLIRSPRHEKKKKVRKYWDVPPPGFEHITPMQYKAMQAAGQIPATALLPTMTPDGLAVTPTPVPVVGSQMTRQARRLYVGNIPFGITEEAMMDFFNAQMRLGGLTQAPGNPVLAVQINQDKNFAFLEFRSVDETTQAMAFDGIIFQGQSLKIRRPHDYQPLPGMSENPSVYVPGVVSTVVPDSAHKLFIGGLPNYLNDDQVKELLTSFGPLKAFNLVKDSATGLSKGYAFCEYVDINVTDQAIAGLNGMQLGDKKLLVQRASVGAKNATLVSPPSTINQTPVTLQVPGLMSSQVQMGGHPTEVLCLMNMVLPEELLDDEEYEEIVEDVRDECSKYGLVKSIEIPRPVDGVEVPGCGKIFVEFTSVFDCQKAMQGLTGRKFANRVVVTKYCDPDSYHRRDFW
- run_description: SPR; SPR: 25 °C, 1:10 mixture of binding buffer (10 mM Tris-HCl pH 7.5, 150 mM KCl) and HBS-EP (10 mM HEPES pH 7.4, 150 mM NaCl, 3 mM EDTA, 0.005% P20), protein immobilized; pull-down: RNA on streptavidin beads blocked in 10 mM Tris-HCl pH 7.5, 100 mM KCl, 0.1 mM EDTA, 1 mM DTT, 0.01% Triton X-100, BSA, tRNA; extract 1 h at 30 °C, elution 400-2600 mM KCl
- reported_conditions: protein: recombinant; tags: N-terminal His-tag (pET28a); label: biotin; parallel G4, several variants possible
result_type: pKd
// returns pKd (minus log10 of molar concentration), number only

Input: Respond only with pKd recorded for AGCCGGGGGCUGGGCGGGGACCGGGCUUGU (structured_RNA, 3' biotin) [ARPC2 GQ]
Output: 9.00
